B1: PTPLAD1 (parent)
chain: YINFRHLYKQRRRRYGQKKKKIH

Variants of: B1
EXPERIMENTAL_DETAILS: protein stability index of a GFP-peptide fusion (GPS, HEK-293T) (PSI 1-6); higher = more stable;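 also: lentivirally expressed fusions sorted by FACS into six bins by GFP to DsRed ratio, PSI derived from sequencing read proportions per bin multiplied by bin number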
EXPERIMENTAL_PARAMETERS: c terminus: native
REPORTED_PROPERTY: protein stability index
Lab note: jot down the number only; don't add units.

Worked set:
MUTATION_SPEC	protein stability index
K21R	2.49
R13E	2.09
Y8A	2.52
K21F	2.76
Q17Y	1.7
Q17L	2.07
F4T	2.01
Y1E	2.5
Y8H	2.31

Now, please, on to the next variant.
Q. Specify protein stability index for `R11S` and stop.
A. 2.3
